- System: recombinant guanylate cyclase reporter cell line
- test: Action on recombinant guanylate cyclase reporter cell line (MEC)
- Format: cell-based
- condition: in some cases mean values obtained from individual determinations
Counter-ions that a name gives are not always drawn.
What minimal effective concentration was measured for each of the following?
Please make sure the unit comes right after the number.

Incoming: Supply reported minimal effective concentration belonging to this compound: Cc1nc2c(OCc3c(F)cccc3F)cccn2c1C(=O)NC(C)C(O)C(F)(F)F (single isomer, unassigned) [Example 146]
Outgoing: 1.0 µM

Incoming: Supply reported minimal effective concentration belonging to this compound: CCCC[C@@H](NC(=O)c1c(C)nc2c(OCc3c(F)cccc3F)cccn12)C(C)O (stereo partly drawn) [Example 139]
Outgoing: 0.03 µM

Incoming: Supply reported minimal effective concentration belonging to this compound: CCCC[C@H](CO)NC(=O)c1c(C)nc2c(OCc3cccc(F)c3)cccn12
Outgoing: 0.1 µM

Incoming: Supply reported minimal effective concentration belonging to this compound: CCC[C@H](CO)NC(=O)c1c(C)nc2c(OCC3CCCCC3)cccn12
Outgoing: 0.03 µM

Incoming: Supply reported minimal effective concentration belonging to this compound: Cc1nc2c(OCc3c(F)cccc3F)cccn2c1C(=O)N[C@@H](CO)C(C)C
Outgoing: 0.1 µM

Incoming: Supply reported minimal effective concentration belonging to this compound: CCOCC(CO)NC(=O)c1c(C)nc2c(OCc3c(F)cccc3F)cccn12 (single isomer, unassigned; ent-8) [Example 161]
Outgoing: 1 µM

Incoming: Supply reported minimal effective concentration belonging to this compound: Cc1cccc(COc2cccn3c(C(=O)NC(CO)CO)c(C)nc23)c1Cl
Outgoing: 10 µM

Incoming: Supply reported minimal effective concentration belonging to this compound: Cc1cc(OCCC(C(F)(F)F)C(F)(F)F)c2nc(C)c(C(=O)NC3c4ccccc4CC3O)n2c1 (stereo not drawn)
Outgoing: 1 µM

Incoming: Supply reported minimal effective concentration belonging to this compound: CCCC[C@@H](NC(=O)c1c(C)nc2c(OCc3c(F)cccc3F)cccn12)C(C)O (stereo partly drawn) [Example 140]
Outgoing: 0.03 µM

Incoming: Supply reported minimal effective concentration belonging to this compound: COCC(O)CNC(=O)c1c(C)nc2c(OCC3CCCCC3)cccn12 (stereo not drawn)
Outgoing: 0.3 µM

Incoming: Supply reported minimal effective concentration belonging to this compound: Cc1nc2c(OCc3c(F)cccc3F)cccn2c1C(=O)NC(c1ccc(Cl)cc1)C(C)(C)O (racemic)
Outgoing: 0.3 µM

Incoming: Supply reported minimal effective concentration belonging to this compound: [2H]C([2H])(Oc1cccn2c(C(=O)N[C@@H](CO)CCCC)c(C)nc12)c1c(F)cccc1F
Outgoing: 0.01 µM

Incoming: Supply reported minimal effective concentration belonging to this compound: Cc1nc2c(OCc3c(F)cccc3F)cccn2c1C(=O)NC[C@H](O)c1ccccc1
Outgoing: 0.3 µM

Incoming: Supply reported minimal effective concentration belonging to this compound: Cc1nc2c(OCC3CCC3)cccn2c1C(=O)NCCC1(O)CCCC1
Outgoing: 1 µM

Incoming: Supply reported minimal effective concentration belonging to this compound: Cc1nc2c(OCc3c(F)cccc3F)cccn2c1C(=O)N[C@H]1CCC[C@@H]1O
Outgoing: 1 µM

Incoming: Supply reported minimal effective concentration belonging to this compound: CCCC[C@H](CO)NC(=O)c1c(C)nc2c(OCc3ccccc3)cccn12
Outgoing: 1 µM

Incoming: Supply reported minimal effective concentration belonging to this compound: Cc1nc2c(OCc3c(F)cccc3F)cccn2c1C(=O)NCC(O)COc1ccc(F)cc1 (stereo not drawn)
Outgoing: 3 µM

Incoming: Supply reported minimal effective concentration belonging to this compound: Cc1nc2c(OCc3ccccc3F)cccn2c1C(=O)NC(CO)CO
Outgoing: 5.5 µM

Incoming: Supply reported minimal effective concentration belonging to this compound: CCCC[C@H](CO)NC(=O)c1c(C)nc2c(OCc3cccc(Cl)c3Cl)cccn12
Outgoing: 0.5 µM

Incoming: Supply reported minimal effective concentration belonging to this compound: CCCC[C@H](CO)NC(=O)c1c(C)nc2c(OCc3c(F)cccc3F)cc(F)cn12
Outgoing: 0.03 µM

Incoming: Supply reported minimal effective concentration belonging to this compound: CCCC[C@H](CO)NC(=O)c1c(C)nc2c(OCc3c(F)cccc3F)cc(Br)cn12
Outgoing: 0.03 µM

Incoming: Supply reported minimal effective concentration belonging to this compound: Cc1nc2c(OCC3CCCCC3)cccn2c1C(=O)NC(CO)(CO)CO [Example 77, formate]
Outgoing: 0.3 µM

Incoming: Supply reported minimal effective concentration belonging to this compound: Cc1nc2c(OCC3CCCCC3)cccn2c1C(=O)NC1CCCC1O (stereo not drawn)
Outgoing: 0.3 µM

Incoming: Supply reported minimal effective concentration belonging to this compound: CCCC[C@H](CO)NC(=O)c1c(C)nc2c(OCc3c(F)cccc3F)cc(C)cn12
Outgoing: 0.01 µM

Incoming: Supply reported minimal effective concentration belonging to this compound: CCc1nc2c(OCC3CCCCC3)cccn2c1C(=O)N[C@H](C)CO [Example 55, formic acid salt]
Outgoing: 0.1 µM

Incoming: Supply reported minimal effective concentration belonging to this compound: Cc1nc2c(OCc3c(F)cccc3F)cccn2c1C(=O)NC[C@@H](O)c1ccccc1
Outgoing: 1 µM

Incoming: Supply reported minimal effective concentration belonging to this compound: Cc1nc2c(OCC3CCC3)cccn2c1C(=O)NCCOCCO
Outgoing: 3 µM

Incoming: Supply reported minimal effective concentration belonging to this compound: CCCC[C@H](CO)NC(=O)c1c(C)nc2c(OCc3cccc(F)c3F)cccn12
Outgoing: 0.3 µM

Incoming: Supply reported minimal effective concentration belonging to this compound: Cc1nc2c(OCc3c(F)cccc3F)cccn2c1C(=O)NC(CO)CCC(F)(F)F (racemic) [Example 101, trifluoroacetate]
Outgoing: 0.1 µM

Incoming: Supply reported minimal effective concentration belonging to this compound: CCc1nc2c(OCC3CCC3)cccn2c1C(=O)N[C@@H](C)CO [Example 58, formic acid salt]
Outgoing: 3 µM

Incoming: Supply reported minimal effective concentration belonging to this compound: Cc1nc2c(OCC3CCCCC3)cccn2c1C(=O)NCCCO
Outgoing: 0.3 µM

Incoming: Supply reported minimal effective concentration belonging to this compound: COC(=O)[C@H](CO)NC(=O)c1c(C)nc2c(OCc3c(F)cccc3F)cccn12
Outgoing: 0.2 µM

Incoming: Supply reported minimal effective concentration belonging to this compound: CCCC[C@H](CO)NC(=O)c1c(C)nc2c(OCc3c(F)cccc3F)cc(CC)cn12
Outgoing: 0.1 µM
